This collection of values is drawn from patent US20220081409A1.

Molecular target: UniProtKB O76083
pIC50: −log10 of the molar value.
Response key: YES means pIC50 >= 8; NO means pIC50 < 8.

*Q* Reported pIC50 at or above 8? CNC(=O)c1ccc2[nH]c(=O)c(C#N)c(N3CCC4(CC3)CC4)c2c1 [Compound 96]
*A* YES

*Q* Reported pIC50 at or above 8? COC1(C)CCN(c2c(C#N)c(=O)[nH]c3ccc(C(C)C)cc23)CC1 [Compound 179]
*A* NO

*Q* Reported pIC50 at or above 8? COC1(C)CCN(c2c(C#N)c(=O)[nH]c3ccc(C(O)C4CC4)cc23)CC1 (stereo not drawn) [Compound 130]
*A* YES

====

Assay: Liver microsomal stability in rat liver microsomes
Format: in vitro ADME
Conditions: 0.5 mg protein/mL, 1 μM compound, 37° C.
For each of the compounds below, state its half-life at 1 μM.
State just the number; it will be interpreted in h.

*Q* Requested read-out: half-life at 1 μM. Entry: COCCOc1ccc2[nH]c(=O)c(C#N)c(N3CCC(C)(OC)CC3)c2c1 [Compound 145]
*A* 2.13

*Q* Requested read-out: half-life at 1 μM. Entry: N#Cc1c(N2CCCCCC2)c2ccccc2[nH]c1=O [Compound I-8, reference compound]
*A* 0.792

*Q* Requested read-out: half-life at 1 μM. Entry: COC1(C)CCN(c2c(C#N)c(=O)[nH]c3ccc(C(O)C4CC4)cc23)CC1 (stereo not drawn) [Compound 130]
*A* 2.82

*Q* Requested read-out: half-life at 1 μM. Entry: COC1(C)CCN(c2c(C#N)c(=O)[nH]c3ccc(C(C)(C)O)cc23)CC1 [Compound 109]
*A* 7.7

*Q* Requested read-out: half-life at 1 μM. Entry: COC1(C)CCN(c2c(C#N)c(=O)[nH]c3ccc(Br)cc23)CC1 [Compound 180]
*A* 0.955

*Q* Requested read-out: half-life at 1 μM. Entry: CNC(=O)c1ccc2[nH]c(=O)c(C#N)c(N3CCC4(CC3)CC4)c2c1 [Compound 96]
*A* 3.22

====

Experiment: Liver microsomal stability in rat liver microsomes
Type: in vitro ADME
Details: 0.5 mg protein/mL, 1 μM compound, 37° C.
Response key: met means microsomal CLint at 1 μM >= 7 µL/min/mg; not met means microsomal CLint at 1 μM < 7 µL/min/mg.

*Q* Reported microsomal CLint at 1 μM at or above 7 µL/min/mg? COC1(C)CCN(c2c(C#N)c(=O)[nH]c3ccc(C(C)(C)O)cc23)CC1
*A* not met

*Q* Reported microsomal CLint at 1 μM at or above 7 µL/min/mg? COCCOc1ccc2[nH]c(=O)c(C#N)c(N3CCC(C)(OC)CC3)c2c1
*A* met

*Q* Reported microsomal CLint at 1 μM at or above 7 µL/min/mg? COC1(C)CCN(c2c(C#N)c(=O)[nH]c3ccc(C(O)C4CC4)cc23)CC1 (stereo not drawn)
*A* met

*Q* Reported microsomal CLint at 1 μM at or above 7 µL/min/mg? COC1(C)CCN(c2c(C#N)c(=O)[nH]c3ccc(Br)cc23)CC1
*A* met

*Q* Reported microsomal CLint at 1 μM at or above 7 µL/min/mg? N#Cc1c(N2CCCCCC2)c2ccccc2[nH]c1=O [Compound I-8, reference compound]
*A* met

====

measurement label: pIC50
Worth noting: pIC50 values are minus log10 of concentrations stated in mol/L.

*Q* For the record CCc1ccc2[nH]c(=O)c(C#N)c(N3CCC(C)(OC)CC3)c2c1 , what value of pIC50 is listed for PDE9A2 enzyme (Homo sapiens, UniProt O76083)?
*A* 8.10

*Q* For the record COC1(C)CCN(c2c(C#N)c(=O)[nH]c3ccc(C(C)(C)O)cc23)CC1 , what value of pIC50 is listed for PDE9A2 enzyme (Homo sapiens, UniProt O76083)?
*A* 7.82

*Q* For the record COC1(C)CCN(c2c(C#N)c(=O)[nH]c3ccc(C)cc23)CC1 , what value of pIC50 is listed for PDE9A2 enzyme (Homo sapiens, UniProt O76083)?
*A* 7.92
